Data credit: patent US7658937B2

test system: B. Malayi adult worms; assay: Dose response of active anthraquinones against adult worms (50 to 3.12 ppm); format: cell-based, Brugia malayi; conditions: 25 ppm
reported-metric: 100% Mortality of B. Malayi (days)
Your answer should be a plain number; it is taken to be in days.

// below: answered molecules
[
  {
    "molecule": "COc1cccc2c1C(=O)c1c(cc(C)c(OC)c1O)C2=O [Anthraquinone R]",
    "assayed-system": "B. Malayi adult worms",
    "reported-metric": "100% Mortality of B. Malayi",
    "value-unit": "days",
    "reported-result": 2
  },
  {
    "molecule": "Cc1cc2c(c(O)c1O)C(=O)c1ccccc1C2=O [Anthraquinone B, 1,2-Dihydroxy-3-methyl anthraquinone]",
    "assayed-system": "B. Malayi adult worms",
    "reported-metric": "100% Mortality of B. Malayi",
    "value-unit": "days",
    "reported-result": 3
  },
  {
    "molecule": "O=C1c2ccccc2C(=O)c2c1cc(O)c(O)c2O [Anthraquinone F, 1,2,3-Trihydroxy anthraquinone]",
    "assayed-system": "B. Malayi adult worms",
    "reported-metric": "100% Mortality of B. Malayi",
    "value-unit": "days",
    "reported-result": 4
  }
]

From here, focus on the item given below.
Problem: Can you look up the measured 100% Mortality of B. Malayi of Cc1cc2c(c(O)c1O)C(=O)c1c(O)cccc1C2=O [Anthraquinone J, 1,2,8-Trihydroxy-3-methyl anthraquinone] for me?
Result: 3
